Tested on: SW-620 colon
TEST_METHOD_NOTES: NCI tumour cell line growth inhibition, 48 h; in the data active means GI50 below about 0.43 µM; inactive means the rest
Respond with a class label; see active, inactive

Prompt line: Any idea what this test logged for CS(=O)(=O)[O-].CS(=O)(=O)[O-].NC1CCCCC1N.[Pt+4] (stereo not given) ?
Response line: inactive

Prompt line: Give the logged outcome of this assay for the following compound: CC[C@]1(O)C[C@@H]2CN(CCc3c([nH]c4ccccc34)[C@@](C(=O)OC)(c3cc4c(cc3OC)N(C)[C@H]3[C@@](O)(C(N)=O)[C@H](O)[C@]5(CC)[C@@H]6C[C@@H]6CN6CC[C@]43[C@@H]65)C2)C1
Response line: active

Prompt line: Returns: the outcome recorded for COc1cc2c(c(OC)c1OC)-c1ccc(O)c(=O)cc1[C@@H](NC(C)=O)CC2 in this assay.
Response line: inactive

Prompt line: Just curious, what result did C/C(=C(/c1ccc(O)cc1)c1ccc(Cl)cc1)c1ccccc1 get here?
Response line: inactive

Prompt line: Each compound tested received a call. Report the one for CCCCCCNC(=O)n1cc(F)c(=O)[nH]c1=O .
Response line: inactive
